Source listed as patent US20210380702A1.

Provide the recorded % maximum blocking for the entries that follow.
# TARGET_OF_ASSAY: T1, recombinant human PD-L1 (amino acids 19-239 of NP_054862.1) expressed with a C-terminal mouse IgG2a Fc tag (human)
# T1 construct: called dimeric; also called hPD-L1-mFc
# EXPERIMENTAL_PROTOCOL: competition ELISA: 0.5 nM hPD-L1-mFc binding to coated hPD-1-hFc
Don't forget the unit after the value.

>>> observed_value("H2aM8317N (antibody, V domains shown, human variable regions, mouse IgG2 Fc (H2aM prefix); also called H2M8317N) VH: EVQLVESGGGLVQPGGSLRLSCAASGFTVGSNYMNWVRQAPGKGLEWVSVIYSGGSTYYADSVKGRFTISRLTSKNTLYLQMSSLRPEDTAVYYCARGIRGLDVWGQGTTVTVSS VL: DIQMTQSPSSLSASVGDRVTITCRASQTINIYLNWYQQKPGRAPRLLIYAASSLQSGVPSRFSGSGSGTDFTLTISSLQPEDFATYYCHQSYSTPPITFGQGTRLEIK")
"-11%"

# ---- query binder ----
The reported % maximum blocking of the binder H2aM8323N (antibody, V domains shown, human variable regions, mouse IgG2 Fc (H2aM prefix); also called H2M8323N) VH: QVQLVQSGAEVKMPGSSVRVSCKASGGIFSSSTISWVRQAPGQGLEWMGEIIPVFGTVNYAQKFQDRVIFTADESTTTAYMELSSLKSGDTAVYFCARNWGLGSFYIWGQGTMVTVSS VL: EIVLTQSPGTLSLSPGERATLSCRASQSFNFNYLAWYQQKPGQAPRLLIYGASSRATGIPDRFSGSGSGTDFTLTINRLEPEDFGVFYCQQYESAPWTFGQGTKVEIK was 100%
